# Relative affinity (1/RA) annotations
- test_system: T1, HLA-A*0201 on T2 cells (human)
- T1 construct: whole, on cells; also called HLA-A2
- assay: T2 cell binding assay, flow cytometry
Square brackets hold non-standard residues; d marks the D form. Ends that are not written are not given here. Phg = N[C@H](C(=O)O)c1ccccc1
readout: Relative affinity (1/RA)

> print(dat)
                                     binder  test.value
1  FVSDKIFYV [SSX2 41-49 (K41F, A42V, E44D)]         1.1
2  FVSEKIF[Phg]V (also called FVSEKIF(Phg)V) [SSX2 41-49 (K41F, A42V, Y48Phg)]         2.5
3  FVSQKIFYV [SSX2 41-49 (K41F, A42V, E44Q)]         0.4
4  FVSEKIFTV [SSX2 41-49 (K41F, A42V, Y48T)]         3.8
5  FVSEKLFTV [SSX2 41-49 (K41F, A42V, I46L, Y48T)]         2.6
